- Test system: mouse aortic endothelial cells (MAE)
- method description: Endothelial tube formation on Matrigel
- Type: cell-based
- run parameters: endothelial tube assay (FIGS. 30 and 31)
property label: ED50
The reply should consist of the numeric value with the unit placed after it.

input: Any idea what its ED50 is? The molecule is Tumstatin: NC1 domain of the α3 chain of type IV collagen, residues 1-244 (SEQ ID NO:10) (protein, listed as Homo sapiens) GLKGKRGDSGSPATWTTRGFVFTRHSQTTAIPSCPEGTVPLYSGFSFLFVQGNQRAHGQDLGTLGSCLQRFTTMPFLFCNVNDVCNFASRNDYSYWLSTPALMPMNMAPITGRALEPYISRCTVCEGPAIAIAVHSQTTDIPPCPHGWISLWKGFSFIMFTSAGSEGTGQALASPGSCLEEFRASPFLECHGRGTCNYYSNSYSFWLASLNPERMFRKPIPSTVKAGELEKIISRCQVCMKKRH
output: 0.55 µg/mL
